System: Caco-2
PROTOCOL SUMMARY: cell viability relative to DMSO; higher = less toxic
SETUP CONDITIONS: 72 h; 1000 nM
OBSERVABLE: cell viability (%)
The answer is to be given in %; state only the numeric part.

// solved cases for cell viability follow
MOLECULE | TARGET ENTITY | MEASURED NUMBER
CC1=C(/C=C/C(C)=C/C=C/C(C)=C/C=C/C=C(C)/C=C/C=C(C)/C=C/C2=C(C)CCCC2(C)C)C(C)(C)CCC1 | Caco-2 | 92.7
C=CC(=O)N1CCC(Oc2cc3c(Nc4ccc(Cl)c(Cl)c4F)ncnc3cc2OC)CC1 | Caco-2 | 85.2
O=C(O)CC/C=C\C[C@@H]1CO[C@H](c2ccccc2Cl)O[C@@H]1c1ccccc1O (racemic) | Caco-2 | 96.9
O=C(Nc1cccc(Nc2ncc(Br)c(NCCc3cnc[nH]3)n2)c1)N1CCCC1 | Caco-2 | 94.6
Cc1occc(=O)c1[O-].Cc1occc(=O)c1[O-].[O]=[V+2] | Caco-2 | 95.4
CN(C(=O)CN(CCO)CC(=O)N(C)C(C)(C)Cc1ccccc1)C(C)(C)Cc1ccccc1 | Caco-2 | 93.1
CSc1ccc(C(=O)N[C@@H]2CCCC[C@@H]2NC(=O)CNC(=O)c2cc(C(F)(F)F)ccc2NC(=O)NC(C)C)cc1 | Caco-2 | 100

Now look at this one.
Lab book: cell viability of O=C(c1ccc(F)cc1)C1CCN(CCn2c(=O)[nH]c3ccccc3c2=O)CC1 noted as 99.7
